Values were extracted from patent US20220153734A1.

MEASURED ON: IRE1α (Homo sapiens, UniProt O75460)
Construct: purchased Signal Chem E31-11G
Sequence (O75460 468-977 limits assumed): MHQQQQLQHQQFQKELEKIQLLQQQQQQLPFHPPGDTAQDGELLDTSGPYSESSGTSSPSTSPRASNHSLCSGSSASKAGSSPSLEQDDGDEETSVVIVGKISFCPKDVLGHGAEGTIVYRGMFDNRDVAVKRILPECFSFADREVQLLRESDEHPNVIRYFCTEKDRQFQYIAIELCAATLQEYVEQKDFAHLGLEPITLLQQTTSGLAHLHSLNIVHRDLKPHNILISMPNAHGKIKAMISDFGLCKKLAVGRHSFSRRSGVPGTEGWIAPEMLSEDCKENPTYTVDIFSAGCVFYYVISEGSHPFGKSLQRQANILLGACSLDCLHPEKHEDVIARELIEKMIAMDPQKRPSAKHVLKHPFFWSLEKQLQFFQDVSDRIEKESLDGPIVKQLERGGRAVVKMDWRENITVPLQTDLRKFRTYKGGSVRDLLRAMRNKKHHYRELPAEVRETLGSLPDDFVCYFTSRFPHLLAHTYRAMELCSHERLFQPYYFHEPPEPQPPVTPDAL
EXPERIMENTAL DETAILS: Biochemical assay: inhibition of RNase activity of IRE1α
EXPERIMENTAL SETUP: enzyme 0.325 nM, substrate 100 nM, 20 minutes
pIC50: −log10 of the molar value.
OBSERVATION TYPE: pIC50

COMPOUND	MEASUREMENT
CC(C)n1nc(-c2cc(F)c(NS(=O)(=O)Cc3ccccc3Cl)cc2F)c2c(N)ncc([C@H]3CC[C@H](NC4COC4)CC3)c21 [Compound A47]	8.89
CC(F)CNC1CC=C(c2cnc(N)c3c(-c4ccc(NS(=O)(=O)c5ccccc5Cl)c(F)c4)nn(C(C)C)c23)CC1 (single isomer, unassigned) [Compound B47]	8.35
CC(C)n1nc(-c2cc(F)c(NS(=O)(=O)c3ccccc3F)cc2F)c2c(N)ncc([C@H]3CC[C@H](N(C)C)CC3)c21 [Compound A40]	8.25
CCn1nc(-c2ccc(NS(=O)(=O)c3ccccc3F)c(F)c2)c2c(N)ncc(C3=CCC(NC4COC4)CC3)c21 (single isomer, unassigned) [Compound B33]	7.22
COc1ccc(Cl)c(S(=O)(=O)Nc2ccc(-c3nn(C(C)C)c4c(C5=CCC(NC6COC6)CC5)cnc(N)c34)cc2F)c1 (single isomer, unassigned) [Compound B9]	7.15
CC(C)n1nc(-c2cc(F)c(NS(=O)(=O)c3ccccc3F)cc2F)c2c(N)ncc(C3=CCC(NC4COC4)CC3)c21 (stereo not drawn) [Compound B60]	7.10

* * *

MEASURED ON: IRE1α (Homo sapiens, UniProt O75460)
Construct: purchased Signal Chem E31-11G
EXPERIMENTAL DETAILS: Biochemical assay: inhibition of RNase activity of IRE1α
EXPERIMENTAL SETUP: enzyme 0.325 nM, substrate 100 nM, 20 minutes
pIC50: −log10 of the molar value.
OBSERVATION TYPE: pIC50

COMPOUND	MEASUREMENT
CCn1nc(-c2ccc(NS(=O)(=O)c3ccccc3Cl)c(F)c2)c2c(N)ncc(C3=CCC(NC4COC4)CC3)c21 (racemic) [racemic mixture of B61 & B62]	7.40
COCCN[C@H]1CC[C@H](c2cnc(N)c3c(-c4cc(F)c(NS(=O)(=O)c5cc(OC)ccc5Cl)cc4F)nn(C(C)C)c32)CC1 [Compound A2]	8.34
Nc1ncc(C2=CCC(NC3COC3)CC2)c2c1c(-c1ccc(NS(=O)(=O)c3ccccc3Cl)c(F)c1)nn2C1CC1 (single isomer, unassigned) [Compound B18]	8.00
Nc1ncc([C@H]2CC[C@H](NC3COC3)CC2)c2c1c(-c1ccc(NS(=O)(=O)c3ccccc3F)c(F)c1)nn2C1CC1 [Compound A41]	8.10
CC(C)n1nc(-c2ccc(NS(=O)(=O)c3cc(Cl)ccc3F)c(F)c2)c2c(N)ncc(C3=CCC(NC4COC4)CC3)c21 (single isomer, unassigned) [Compound B14]	8.17
CC(C)n1nc(-c2cc(F)c(NS(=O)(=O)Cc3ccccc3F)cc2F)c2c(N)ncc([C@H]3CC[C@H](NC4COC4)CC3)c21 [Compound A48]	8.72
CC(CF)NC1CC=C(c2cnc(N)c3c(-c4ccc(NS(=O)(=O)Cc5ccccc5Cl)c(F)c4)nn(C(C)C)c23)CC1 (single isomer, unassigned) [Compound B45]	8.47
CCn1nc(-c2ccc(NS(=O)(=O)Cc3ccccc3Cl)c(F)c2)c2c(N)ncc(C3=CCC(NC4COC4)CC3)c21 (single isomer, unassigned) [Compound B29]	8.13
Nc1ncc([C@H]2CC[C@H](NC3COC3)CC2)c2c1c(-c1ccc(NS(=O)(=O)c3ccccc3Cl)c(F)c1)nn2C1CC1 [Compound A56]	8.46
CC(C)n1nc(-c2ccc(NS(=O)(=O)Cc3ccccc3Cl)c(F)c2)c2c(N)ncc(C3=CCC(NC4CC(F)(F)C4)CC3)c21 (single isomer, unassigned) [Compound B48]	8.89
CC(C)n1nc(-c2ccc(NS(=O)(=O)c3ccccc3Cl)c(F)c2)c2c(N)ncc(C3=CCC(NC4COC4)CC3)c21 (racemic) [racemic mixture of B56 & B57]	7.59
COCCN[C@H]1CC[C@H](c2cnc(N)c3c(-c4cc(F)c(NS(=O)(=O)c5cccc(F)c5F)cc4F)nn(C(C)C)c32)CC1 [Compound A25]	8.05

* * *

MEASURED ON: IRE1α (Homo sapiens)
Construct: purchased Signal Chem E31-11G
EXPERIMENTAL DETAILS: Biochemical assay to detect inhibition of kinase activity of IRE1α (ADP-Glo)
OBSERVATION TYPE: IC50

> print(dat)
                                   compound  measurement
1  CC(C)n1nc(-c2ccc(NS(=O)(=O)Cc3ccccc3Cl)c(F)c2)c2c(N)ncc(C3=CCC(NC4COC4)CC3)c21 (single isomer, unassigned)       1.8 nM
2  CCn1nc(-c2ccc(NS(=O)(=O)Cc3ccccc3F)c(F)c2)c2c(N)ncc(C3=CCC(NC4COC4)CC3)c21 (single isomer, unassigned)       4.1 nM
3  CC(C)n1nc(-c2ccc(NS(=O)(=O)Cc3ccccc3F)c(F)c2)c2c(N)ncc([C@H]3CC[C@H](NC4COC4)CC3)c21       0.9 nM
4  CC(C)n1nc(-c2cc(F)c(NS(=O)(=O)c3ccccc3Cl)cc2F)c2c(N)ncc(C3=CCC(NC4COC4)CC3)c21 (single isomer, unassigned)         7 nM
5  CC(C)n1nc(-c2ccc(NS(=O)(=O)c3ccccc3F)c(F)c2)c2c(N)ncc([C@H]3CC[C@H](NC4COC4)CC3)c21       1.9 nM
6  CC(C)n1nc(-c2cc(F)c(NS(=O)(=O)Cc3ccccc3Cl)cc2F)c2c(N)ncc([C@H]3CC[C@H](NC4COC4)CC3)c21         2 nM
7  Nc1ncc([C@H]2CC[C@H](NC3COC3)CC2)c2c1c(-c1ccc(NS(=O)(=O)c3ccccc3F)c(F)c1)nn2C1CC1       4.3 nM
8  CC(C)n1nc(-c2ccc(NS(=O)(=O)c3ccccc3Cl)c(F)c2)c2c(N)ncc([C@H]3CC[C@H](NC4COC4)CC3)c21         3 nM

* * *

MEASURED ON: IRE1α (Homo sapiens)
Construct: purchased Signal Chem E31-11G
EXPERIMENTAL DETAILS: Biochemical assay: inhibition of RNase activity of IRE1α
EXPERIMENTAL SETUP: enzyme 0.325 nM, substrate 100 nM, 20 minutes
Recorded measurements of IC50, one per entry
OBSERVATION TYPE: IC50 (nM)

COMPOUND	UNIT OF MEASUREMENT	MEASUREMENT
COCCN[C@H]1CC[C@H](c2cnc(N)c3c(-c4cc(F)c(NS(=O)(=O)c5ccc(Cl)cc5F)cc4F)nn(C(C)C)c32)CC1	nM	7.8
CCn1nc(-c2ccc(NS(=O)(=O)c3ccccc3F)c(F)c2)c2c(N)ncc(C3=CCC(NC4COC4)CC3)c21 (single isomer, unassigned) [Compound B34]	nM	100
Cc1ccc(F)c(S(=O)(=O)Nc2ccc(-c3nn(C(C)C)c4c(C5=CCC(NC6COC6)CC5)cnc(N)c34)cc2F)c1 (single isomer, unassigned) [Compound B16]	nM	13
Nc1ncc([C@H]2CC[C@H](NC3COC3)CC2)c2c1c(-c1ccc(NS(=O)(=O)Cc3ccccc3Cl)c(F)c1)nn2C1CC1	nM	0.7
CCn1nc(-c2ccc(NS(=O)(=O)c3ccccc3Cl)c(F)c2)c2c(N)ncc(C3=CCC(NC4COC4)CC3)c21 (single isomer, unassigned) [Compound B61]	nM	34
CC(C)n1nc(-c2ccc(NS(=O)(=O)Cc3ccccc3F)c(F)c2)c2c(N)ncc([C@H]3CC[C@H](NC4COC4)CC3)c21	nM	0.4
CCn1nc(-c2ccc(NS(=O)(=O)Cc3ccccc3F)c(F)c2)c2c(N)ncc([C@H]3CC[C@H](NC4COC4)CC3)c21	nM	1.5
CCn1nc(-c2ccc(NS(=O)(=O)Cc3ccccc3F)c(F)c2)c2c(N)ncc(C3=CCC(NC4COC4)CC3)c21 (single isomer, unassigned) [Compound B26]	nM	2.7
CC(C)n1nc(-c2ccc(NS(=O)(=O)c3cc(Cl)ccc3F)c(F)c2)c2c(N)ncc(C3=CCC(NC4COC4)CC3)c21 (single isomer, unassigned) [Compound B15]	nM	1.4
CC(C)n1nc(-c2ccc(NS(=O)(=O)Cc3ccccc3F)c(F)c2)c2c(N)ncc(C3=CCC(NC4COC4)CC3)c21 (single isomer, unassigned) [Compound B1]	nM	2.4
COCCN(C)[C@H]1CC[C@H](c2cnc(N)c3c(-c4cc(F)c(NS(=O)(=O)c5ccccc5F)cc4F)nn(C(C)C)c32)CC1	nM	13
CC(C)n1nc(-c2cc(F)c(NS(=O)(=O)Cc3ccccc3Cl)cc2F)c2c(N)ncc(C3=CCC(NC4COC4)CC3)c21 (single isomer, unassigned) [Compound B6]	nM	5.1
CCn1nc(-c2cc(F)c(NS(=O)(=O)c3ccccc3Cl)cc2F)c2c(N)ncc([C@H]3CC[C@H](NC4COC4)CC3)c21	nM	8.2
CCn1nc(-c2ccc(NS(=O)(=O)c3cc(C)ccc3F)c(F)c2)c2c(N)ncc(C3=CCC(NC4COC4)CC3)c21 (single isomer, unassigned) [Compound B35]	nM	14
COCCN[C@H]1CC[C@H](c2cnc(N)c3c(-c4ccc(NS(=O)(=O)c5ccccc5F)cc4F)nn(C(C)C)c32)CC1	nM	12
